Please go through the items and note down their Percent Effect.
Molecular target: Chromo domain-containing protein 1 (Saccharomyces cerevisiae (strain ATCC 204508 / S288c) (Baker's yeast))
Assay: ScCHD-1 Enzyme Inhibition Assay
Assay type: functional
Parameters: scale not given: in the data most compounds retested in dose-response had high values
Settings: 30 µM
Answers are plain numbers, in %.

Worked cases, Percent Effect given:
Cc1nc(C2CCN(C(=O)c3ccc(=O)n(C)c3)CC2)c2sccn12 = -13.8
Cc1ncsc1C(=O)NCCn1nc2ccccn2c1=O = -7.12
O=C(NCCN1CCCc2ccccc21)c1scnc1Cl = 3.5
CCC(CC)c1cc(CNC(=O)N2CCOC(C)C2)on1 (stereo not given) = 0.0369
CN(Cc1cnn(C)c1)C(=O)NC1CCN(Cc2ccccn2)CC1 = -3.83

Each compound below has a reported value. Please supply its Percent Effect.
1. CC(c1ccc(F)c(F)c1)N1CCN(Cc2nccn2C)CC1 (stereo not given)
2. Cn1cnc2c1CCN(Cc1nc(-c3ccsc3)no1)C2
3. CCc1nccn1C1CCCN(C(=O)c2cnc3ccccc3n2)C1 (stereo not given)

1: -9.27; 2: -9.67; 3: -2.28

Each compound below has a reported value. Please supply its Percent Effect.
1. COc1ccc(CNCC2CC2)cc1F
2. Cc1ccc(CNC(c2ccccc2)c2nccn2C)cc1C (stereo not given)
3. Cn1cc(CN2CCC3(CCCN(Cc4ccccn4)C3)CC2)cn1
4. CN(C)C(=O)N1CCN(C(=O)CCc2ccccc2)[C@H]2CS(=O)(=O)C[C@H]21

1. -2.56
2. -5.06
3. 3.63
4. -2.21

Each compound below has a reported value. Please supply its Percent Effect.
1. CCc1nc(CN(C)CC2CCN(CC(C)O)CC2)no1 (stereo not given)
2. CC1CCN(S(=O)(=O)c2cccn(CC(=O)N3CCOCC3)c2=O)CC1
3. COC(=O)CCC(=O)N1CCC2(CN(Cc3cccc(F)c3)C2)C1
4. Cc1cnn(CC2CCCCN2C(=O)c2ccc3[nH]nnc3c2)c1 (stereo not given)
5. Clc1ccc2cccnc2c1CN1CCCC(Cn2cncn2)C1 (stereo not given)

1: -1.75; 2: -7.85; 3: -1.45; 4: -11.2; 5: 3.69

Each compound below has a reported value. Please supply its Percent Effect.
1. CCn1ccnc1CN(C)C1CCCN(CCc2ccccc2)C1 (stereo not given)
2. CN(C)c1nc2c(c(=O)[nH]1)CCN(C(=O)c1cccc3nccnc13)C2
3. CC(Cn1cccn1)NC(=O)Nc1nccs1 (stereo not given)
4. Cc1cc(C)c(CNC(=O)NCC(O)c2cccc(F)c2)c(=O)[nH]1 (stereo not given)

2.42
-3.03
-5.22
-1.76

Each compound below has a reported value. Please supply its Percent Effect.
1. O=C(Nc1cccc(CNCc2csc(Br)c2)c1)C1CC1
2. CCc1noc(C(C)N2CCN(c3ccc(C#N)cn3)CC2)n1 (stereo not given)
3. Cc1cccc(N2Cc3nc(=O)[nH]n3C2=O)c1
4. O=C(CCOc1ccccc1)N1CCC(Nc2cccnn2)CC1

-8.55
-5.13
-4.23
-5.39
